Molecular target: mouse ADAMTS7 (Mus musculus, UniProt Q68SA9, E373Q)
Construct: Full-length mouse Adamts7 1-1857 (Uniprot Q68SA9, WT or E373Q catalytic mutant); expressed in transfected cells; host or cells: Human Coronary Artery Smooth Muscle Cells (HCA-SMC, Lonza), adenovirus 50 MOI
Sequence (Q68SA9 221-1657 E373Q): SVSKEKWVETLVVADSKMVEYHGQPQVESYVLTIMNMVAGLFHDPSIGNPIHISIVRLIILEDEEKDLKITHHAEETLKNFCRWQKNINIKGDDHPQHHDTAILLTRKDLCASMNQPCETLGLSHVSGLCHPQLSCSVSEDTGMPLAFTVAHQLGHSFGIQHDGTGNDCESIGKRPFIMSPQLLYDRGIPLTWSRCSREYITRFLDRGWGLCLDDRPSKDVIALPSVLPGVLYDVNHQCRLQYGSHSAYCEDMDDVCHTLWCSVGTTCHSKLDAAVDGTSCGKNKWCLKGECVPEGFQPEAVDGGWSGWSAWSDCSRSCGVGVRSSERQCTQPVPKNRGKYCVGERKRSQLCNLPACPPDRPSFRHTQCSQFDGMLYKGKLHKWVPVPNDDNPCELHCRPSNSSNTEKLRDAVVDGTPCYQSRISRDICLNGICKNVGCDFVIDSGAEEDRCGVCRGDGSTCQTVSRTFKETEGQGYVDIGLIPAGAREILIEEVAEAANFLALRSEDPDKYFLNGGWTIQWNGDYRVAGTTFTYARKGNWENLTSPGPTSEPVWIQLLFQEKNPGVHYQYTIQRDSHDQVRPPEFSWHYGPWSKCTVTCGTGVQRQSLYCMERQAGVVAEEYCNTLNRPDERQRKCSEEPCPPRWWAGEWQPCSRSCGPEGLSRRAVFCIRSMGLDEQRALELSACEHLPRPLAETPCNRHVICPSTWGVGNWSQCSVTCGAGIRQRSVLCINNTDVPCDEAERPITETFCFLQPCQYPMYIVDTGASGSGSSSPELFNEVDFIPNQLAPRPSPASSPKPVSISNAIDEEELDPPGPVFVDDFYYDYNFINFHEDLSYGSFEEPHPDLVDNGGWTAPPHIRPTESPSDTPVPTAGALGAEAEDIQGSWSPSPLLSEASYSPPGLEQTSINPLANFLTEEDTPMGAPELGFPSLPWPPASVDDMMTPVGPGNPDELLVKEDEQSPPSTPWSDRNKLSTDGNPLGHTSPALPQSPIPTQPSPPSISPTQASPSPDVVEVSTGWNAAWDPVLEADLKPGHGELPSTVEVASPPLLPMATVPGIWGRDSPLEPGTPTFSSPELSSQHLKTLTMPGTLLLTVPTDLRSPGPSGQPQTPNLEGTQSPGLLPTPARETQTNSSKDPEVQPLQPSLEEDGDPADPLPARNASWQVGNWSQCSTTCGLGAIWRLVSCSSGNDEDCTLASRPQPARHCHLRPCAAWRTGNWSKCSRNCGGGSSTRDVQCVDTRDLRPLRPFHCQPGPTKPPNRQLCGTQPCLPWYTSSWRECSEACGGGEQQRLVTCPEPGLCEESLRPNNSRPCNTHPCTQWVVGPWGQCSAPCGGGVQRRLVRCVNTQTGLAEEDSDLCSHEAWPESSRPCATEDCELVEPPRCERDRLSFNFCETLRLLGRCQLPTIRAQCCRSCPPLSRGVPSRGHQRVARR
Assay: TMT10 TAILS N-terminomics, HUVEC experiment (process replicates, trypsin/AspN digest)
Assay type: cell-based, human
Details: HUVEC TAILS HC; log fold change of N-terminal peptide, Ad-mADAMTS7 EQ over Luc
measurement type: logFC.mEQ.over.Luc

// known answers, use as guide
{"columns": ["substance", "logFC.mEQ.over.Luc"],
 "data": [
  ["FN1_1743 (WESPQGQVSR; listed as Homo sapiens)", "−0.19"],
  ["HSPG2_2331 (ANLAYPAGSTQPIR; listed as Homo sapiens)", "−0.01"],
  ["FBN1_29 (LEAGNVKETR; listed as Homo sapiens)", "−0.34"],
  ["ERAP2_718 (ISENLKR; listed as Homo sapiens)", 0.64],
  ["FN1_293 (VYQPQPHPQPPPYGHCVT; listed as Homo sapiens)", "−0.29"],
  ["FLNA_1285 (LTQTGGPHVKAR; listed as Homo sapiens)", "−0.52"],
  ["SRGN_59 (LLPGESNKIPR; listed as Homo sapiens)", "−0.13"],
  ["EWSR1_87 (YSQPVQGYGTGAY; listed as Homo sapiens)", "−0.05"]
]}

a: MAP4_815 (AVASTGPSSR; listed as Homo sapiens)
b: LTBP2_129 (QQQPAPR; listed as Homo sapiens)
Task: Which is greater in logFC.mEQ.over.Luc, the first item a or the second item b ? Respond with the label that goes with your answer.
Result: a
(a: 0.36, b: −0.49)

* * *

Molecular target: mouse ADAMTS7 (Mus musculus, UniProt Q68SA9, E373Q)
Construct: Full-length mouse Adamts7 1-1857 (Uniprot Q68SA9, WT or E373Q catalytic mutant); expressed in transfected cells; host or cells: Human Coronary Artery Smooth Muscle Cells (HCA-SMC, Lonza), adenovirus 50 MOI
Sequence (Q68SA9 221-1657 E373Q): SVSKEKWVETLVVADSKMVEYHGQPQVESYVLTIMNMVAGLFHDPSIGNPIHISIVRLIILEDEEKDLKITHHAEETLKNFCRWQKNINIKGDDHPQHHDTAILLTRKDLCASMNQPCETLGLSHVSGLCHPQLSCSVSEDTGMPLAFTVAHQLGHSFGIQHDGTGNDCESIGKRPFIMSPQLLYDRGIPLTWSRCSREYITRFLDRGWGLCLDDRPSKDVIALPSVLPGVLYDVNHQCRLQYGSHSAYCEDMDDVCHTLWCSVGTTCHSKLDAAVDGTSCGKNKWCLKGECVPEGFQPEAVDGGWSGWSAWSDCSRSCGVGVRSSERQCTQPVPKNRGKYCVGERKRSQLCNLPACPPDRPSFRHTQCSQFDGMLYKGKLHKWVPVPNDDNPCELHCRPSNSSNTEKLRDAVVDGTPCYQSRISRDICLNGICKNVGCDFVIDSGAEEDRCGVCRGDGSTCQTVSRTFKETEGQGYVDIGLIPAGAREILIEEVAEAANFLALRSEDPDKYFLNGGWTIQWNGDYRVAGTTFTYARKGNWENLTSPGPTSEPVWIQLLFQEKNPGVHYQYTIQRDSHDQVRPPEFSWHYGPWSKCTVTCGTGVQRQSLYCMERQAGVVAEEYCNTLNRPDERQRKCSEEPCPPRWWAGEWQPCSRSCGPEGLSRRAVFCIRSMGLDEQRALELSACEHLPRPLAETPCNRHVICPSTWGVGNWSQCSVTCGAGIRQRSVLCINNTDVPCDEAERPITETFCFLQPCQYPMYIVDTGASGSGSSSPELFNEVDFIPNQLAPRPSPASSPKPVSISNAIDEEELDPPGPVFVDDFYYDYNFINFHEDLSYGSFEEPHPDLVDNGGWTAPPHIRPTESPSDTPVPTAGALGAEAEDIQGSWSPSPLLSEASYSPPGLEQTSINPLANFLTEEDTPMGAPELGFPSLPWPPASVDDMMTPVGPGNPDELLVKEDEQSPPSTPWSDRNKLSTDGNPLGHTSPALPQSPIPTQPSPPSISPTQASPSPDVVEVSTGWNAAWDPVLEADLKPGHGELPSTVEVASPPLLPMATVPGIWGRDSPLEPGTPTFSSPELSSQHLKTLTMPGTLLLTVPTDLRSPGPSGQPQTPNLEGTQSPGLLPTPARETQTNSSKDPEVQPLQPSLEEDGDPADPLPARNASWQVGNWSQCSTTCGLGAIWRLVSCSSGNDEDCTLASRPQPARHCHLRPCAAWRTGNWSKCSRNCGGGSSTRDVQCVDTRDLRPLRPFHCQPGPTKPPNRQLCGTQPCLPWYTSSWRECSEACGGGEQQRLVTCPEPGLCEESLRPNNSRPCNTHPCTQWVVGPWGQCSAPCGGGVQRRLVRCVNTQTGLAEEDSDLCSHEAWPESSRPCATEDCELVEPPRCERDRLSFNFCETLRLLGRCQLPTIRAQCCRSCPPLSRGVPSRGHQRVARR
Test: TMT10 TAILS N-terminomics, SMC1 experiment (Ad-mADAMTS7 WT vs EQ vs Luc, technical replicates, trypsin digest)
Format: cell-based
Conditions: TAILS neo-N-terminal peptide abundance; log fold change, Ad-mADAMTS7 EQ over Luc
measurement type: logFC.mEQ.over.Luc

// known answers, use as guide
{"columns": ["substance", "tgt", "logFC.mEQ.over.Luc"],
 "data": [
  ["FLNA_1285 (LTQTGGPHVKAR; listed as Homo sapiens)", "mouse ADAMTS7 (Mus musculus, UniProt Q68SA9, E373Q)", "−0.11"],
  ["NUCB1_317 (FLASTQR; listed as Homo sapiens)", "mouse ADAMTS7 (Mus musculus, UniProt Q68SA9, E373Q)", "−0.11"],
  ["LTBP1_546 (HVYPVAAKTQLGR; listed as Homo sapiens)", "mouse ADAMTS7 (Mus musculus, UniProt Q68SA9, E373Q)", "−1.05"],
  ["EFHD2_67 (QGIGEPQSPSR; listed as Homo sapiens)", "mouse ADAMTS7 (Mus musculus, UniProt Q68SA9, E373Q)", "−0.09"],
  ["LTBP1_494 (SVQIHQVSR; listed as Homo sapiens)", "mouse ADAMTS7 (Mus musculus, UniProt Q68SA9, E373Q)", "−0.01"]
]}

P: COL1A2_731 (AAGQPGAKGER; listed as Homo sapiens)
Q: FN1_45 (VSQSKPGCYDNGKHYQINQQWER; listed as Homo sapiens)
Task: Which is greater in logFC.mEQ.over.Luc, the first item P or the second item Q ? Respond with the label that goes with your answer.
Result: Q

P: COL1A2_425 (ASGPAGVR; listed as Homo sapiens)
Q: CLEC11A_50 (HLQEALGLPAGR; listed as Homo sapiens)
R: FN1_1143 (LTPGVEYVYTIQVLR; listed as Homo sapiens)
S: HSPG2_3672 (SFLPLPTIKDAYR; listed as Homo sapiens)
Task: Order the entries by their reported logFC.mEQ.over.Luc, beginning at the minimum. Please write the labels in the order that was asked for.
Result: Q, P, R, S
(Q: −0.34, P: −0.17, R: 0.00, S: 0.06)

a: NID2_374 (VGGPDLKGQVEPWDER; listed as Homo sapiens)
b: HSPG2_4004 (SAEPLALGR; listed as Homo sapiens)
Task: Which is greater in logFC.mEQ.over.Luc, the first item a or the second item b ? Respond with the label that goes with your answer.
Result: a
(a: −0.14, b: −0.37)

P: FBLN2_259 (ALGPPAPVQAKAR; listed as Homo sapiens)
Q: CCDC80_66 (LEEPNLQPLQR; listed as Homo sapiens)
R: COL8A1_90 (MKEIQPAPR; listed as Homo sapiens)
S: HSPG2_2333 (LAYPAGSTQPIR; listed as Homo sapiens)
Task: hey, can you rank those substances up there by logFC.mEQ.over.Luc? biggest number first please Please write the labels in the order that was asked for.
Result: Q, S, P, R
(Q: 0.14, S: 0.01, P: −0.01, R: −0.25)

The measured values listed here are drawn from patent US20240368668A1.
